Molecular target: Guanylate cyclase soluble subunit alpha-1 (Rattus norvegicus)
Test: Stimulation of rat recombinant sGCalpha1 subunit expressed in CHO cells using alpha-[32P]GTP as substrate assessed as >=3 fold increase in [32P]cGMP formation after 10 mins by radioimmunoassay
Type: cell-based
Everything with MEC lower than 0.1 µM is N; everything else, including exactly 0.1 µM, is Y.

Query: For this compound, is measured MEC 0.1 µM or higher? COC(=O)N(Cc1cccc(F)c1)c1c(N)nc(-c2nn(Cc3ccccc3F)c3ncccc23)nc1N
Response: Y

Query: For this compound, is measured MEC 0.1 µM or higher? Nc1nc(-c2nn(Cc3ccccc3F)c3ncccc23)nc(N)c1N1C[C@@H](C(F)(F)F)OC1=O
Response: N

Query: For this compound, is measured MEC 0.1 µM or higher? Nc1nc(-c2nn(Cc3ccccc3F)c3ncccc23)nc(N)c1N1C[C@H](C(F)(F)F)OC1=O
Response: Y

Query: For this compound, is measured MEC 0.1 µM or higher? COC(=O)Nc1c(N)nc(-c2nc(Cc3ccccc3F)c3ncccn23)nc1N
Response: Y

Query: For this compound, is measured MEC 0.1 µM or higher? COC(=O)Nc1c(N)nc(-c2nn(Cc3ccccc3F)c3ncccc23)nc1N
Response: Y

Query: For this compound, is measured MEC 0.1 µM or higher? CCN(C(=O)OC)c1c(N)nc(-c2nn(Cc3ccccc3F)c3ncccc23)nc1N
Response: Y
